Entries and their pIC50
Molecular target: human TRPM2 channels (Homo sapiens)
Sequence (O94759 whole entry): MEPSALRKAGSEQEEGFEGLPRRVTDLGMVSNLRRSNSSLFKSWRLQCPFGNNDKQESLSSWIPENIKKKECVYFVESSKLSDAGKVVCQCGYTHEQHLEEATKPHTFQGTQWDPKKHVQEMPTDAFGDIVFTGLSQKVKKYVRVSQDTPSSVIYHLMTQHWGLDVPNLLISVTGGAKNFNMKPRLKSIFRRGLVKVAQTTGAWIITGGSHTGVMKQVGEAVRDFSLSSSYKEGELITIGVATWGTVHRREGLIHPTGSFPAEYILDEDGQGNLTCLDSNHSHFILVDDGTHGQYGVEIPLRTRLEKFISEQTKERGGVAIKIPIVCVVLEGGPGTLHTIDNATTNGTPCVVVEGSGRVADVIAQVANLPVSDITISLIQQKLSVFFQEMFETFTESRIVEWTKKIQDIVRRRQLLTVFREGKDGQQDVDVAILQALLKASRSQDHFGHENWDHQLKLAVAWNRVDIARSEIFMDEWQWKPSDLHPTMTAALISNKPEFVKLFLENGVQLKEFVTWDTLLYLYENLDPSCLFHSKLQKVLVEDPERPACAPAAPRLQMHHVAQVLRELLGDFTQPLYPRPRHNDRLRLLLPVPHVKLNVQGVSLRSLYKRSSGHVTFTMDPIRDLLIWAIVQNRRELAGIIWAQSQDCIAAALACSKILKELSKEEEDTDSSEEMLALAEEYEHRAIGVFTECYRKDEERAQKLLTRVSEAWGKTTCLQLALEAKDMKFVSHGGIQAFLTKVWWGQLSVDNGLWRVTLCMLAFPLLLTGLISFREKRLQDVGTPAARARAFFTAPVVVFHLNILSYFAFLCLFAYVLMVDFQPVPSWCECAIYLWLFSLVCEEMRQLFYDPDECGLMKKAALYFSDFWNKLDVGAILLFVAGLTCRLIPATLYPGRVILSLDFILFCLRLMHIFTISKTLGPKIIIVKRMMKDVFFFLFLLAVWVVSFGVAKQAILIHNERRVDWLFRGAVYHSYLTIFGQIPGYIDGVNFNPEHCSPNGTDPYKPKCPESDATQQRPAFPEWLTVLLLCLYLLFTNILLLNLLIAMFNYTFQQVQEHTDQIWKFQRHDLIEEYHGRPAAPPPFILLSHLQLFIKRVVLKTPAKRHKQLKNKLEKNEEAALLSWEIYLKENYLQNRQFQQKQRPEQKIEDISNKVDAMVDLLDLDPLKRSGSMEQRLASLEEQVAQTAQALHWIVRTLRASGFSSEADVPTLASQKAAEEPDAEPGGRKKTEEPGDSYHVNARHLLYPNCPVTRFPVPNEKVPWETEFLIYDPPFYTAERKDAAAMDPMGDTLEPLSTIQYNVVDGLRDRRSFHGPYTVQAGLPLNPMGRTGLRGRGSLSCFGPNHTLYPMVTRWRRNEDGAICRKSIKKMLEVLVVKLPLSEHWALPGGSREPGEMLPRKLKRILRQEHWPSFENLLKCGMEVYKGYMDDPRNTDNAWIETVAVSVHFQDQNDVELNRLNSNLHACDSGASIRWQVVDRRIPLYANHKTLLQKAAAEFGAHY
Experiment: whole cell patch clamp, inhibition of TRPM2 channel current
Details: HEK293 cells stably expressing human TRPM2, 500 μM ADPR
Protocol: The fused heterocyclic compound of the present invention has an inhibitory effect on the TRPM2 channel, and its pharmacological activity is measured using whole cell patch clamp technology, the corresponding steps are as follows: Incubating HEK293 cells stably expressing human TRPM2 channels in DMEM/F-12 medium containing 10% bovine serum, 50 units/mL of penicillin and […] of streptomycin under the condition of 5% CO2 and 37° C. […]
pIC50: −log10 of the molar value.

Let me check: CCCCCCCC(=O)OC(c1ccccc1)c1cc(C(=O)N(CC)CC)cc2cccn12 (centres unmarked) [II-52] , system human TRPM2 channels (Homo sapiens), measured pIC50 is 4.30 to 4.70

====

molecular target: UniProt:O94759; test: whole cell patch clamp, inhibition of TRPM2 channel current; conditions: HEK293 cells stably expressing human TRPM2, 500 μM ADPR
pIC50: −log10 of the molar value.
Reported Endpoint: pIC50

Consider the reported pIC50 for these compounds:
COC(=O)c1cc(C(=O)c2cccs2)n2cccc2c1	4.70 to 5.00
CN(C)C(=O)c1cc(C(=O)c2ccccc2)n2ccnc2c1	4.70 to 5.00

Documented pIC50 of CCOC(=O)c1cc(C(=O)c2cccs2)n2cccc2c1 : 5.00 to 6.00

GET /value?item= O=C(c1ccccc1)c1cc(C(=O)N2CCOCC2)cc2cccn12 [II-30, (5-benzimide-7-yl) (morphyryl) ketone] &field=pIC50 returns 4.30 to 4.70

GET /value?item= CCOC(=O)c1cc(C(=O)c2ccccc2)n2ccnc2c1 &field=pIC50 returns 4.70 to 5.00

response.value for COC(=O)c1cc(C(=O)c2ccccc2)n2ccnc2c1 (field: pIC50) = 5.00 to 6.00

The compound CCNC(=O)c1cc(C(=O)c2ccccc2)n2cccc2c1 [II-21, 5-benzoyl-N-ethylindolizine-7-formamide] showed pIC50 equal to 4.70 to 5.00

Lab book: pIC50 of CCOC(=O)c1cc(C(=O)c2cccc(OC)c2)n2cccc2c1 noted as 4.70 to 5.00

====

target: UniProtKB O94759; experiment: whole cell patch clamp, inhibition of TRPM2 channel current; conditions: HEK293 cells stably expressing human TRPM2, 500 μM ADPR
pIC50: −log10 of the molar value. Structures can show the parent of a compound that is named as a salt.
# pIC50 per record follows

NC(=O)c1cc(C(=O)c2ccccc2)n2cccc2c1 [II-20, 5-benzimide-7-formamide]	4.70 to 5.00
O=C(O)c1cc(C(=O)c2ccccc2)n2cccc2c1 [II-19, 5-benzimide-7-carboxylic acid]	4.70 to 5.00
O=C(c1ccccc1F)c1cc(C(=O)N2CCCC2)cc2cccn12 [II-33]	4.70 to 5.00
CCOC(=O)c1cc(C(=O)c2ccco2)n2cccc2c1 [II-14]	5.00 to 6.00
O=C(c1ccccc1)c1cc(C(=O)N2CCNCC2)cc2cccn12 [II-37, hydrochloride]	4.70 to 5.00
COC(=O)c1cc(C(=O)c2ccccn2)n2cccc2c1 [II-17]	5.00 to 6.00
CCOC(=O)c1cc(C(O)c2ccccc2)n2cccc2c1 (stereo not shown) [II-41]	4.70 to 5.00
CCCC(=O)OC(c1ccccc1)c1cc(C(=O)OCC)cc2cccn12 (stereo not shown) [II-48]	4.70 to 5.00
CN(C)C(=O)c1cc(C(O)c2ccccc2)n2cccc2c1 (stereo not shown) [II-44]	4.70 to 5.00
O=C(c1ccccc1)c1cc(C(=O)N2CCCC2)cc2nccn12 [III-9]	4.70 to 5.00

Per the record, CCOC(=O)c1cc(C(OC(C)=O)c2ccccc2)n2cccc2c1 (stereo not shown) [II-47] has pIC50 of 4.70 to 5.00

Quick note, pIC50 for O=C(c1ccccc1)c1cc(C(=O)N2CCNCC2)cc2cccn12 [II-29] landed at 4.30 to 4.70

The recorded pIC50 for CCNC(=O)c1cc(C(O)c2ccccc2)n2cccc2c1 (stereo not shown) [II-43] is 4.70 to 5.00

pIC50 for CN1CCN(C(=O)c2cc(C(=O)c3ccccc3)n3cccc3c2)CC1 [II-31] is 4.70 to 5.00

Please fill in: pIC50 reported for CCN(CC)C(=O)c1cc(C(=O)c2ccccc2F)n2cccc2c1 [II-32] = 4.70 to 5.00

The reported value for O=C(c1ccccn1)c1cc(C(=O)N2CCNCC2)cc2cccn12 [II-40, hydrochloride] in terms of pIC50 is 4.70 to 5.00

Memo: CCOC(=O)c1cc(C(OC)c2ccccc2)n2cccc2c1 (stereo not shown) [II-53] , reported pIC50: 5.00 to 6.00

pIC50 recorded for this compound, CCOC(=O)c1cc(C(=O)c2cccc(Br)c2)n2cccc2c1 [II-10] , is 5.00 to 6.00

So for COC(=O)c1cc(C(=O)c2ccccc2F)n2cccc2c1 [II-8] , the logged pIC50 turned out to be 5.00 to 6.00
